TARGET OF ASSAY: PI3Kdelta (Homo sapiens (Human), UniProt O00329)
Sequence (O00329 whole entry, canonical isoform): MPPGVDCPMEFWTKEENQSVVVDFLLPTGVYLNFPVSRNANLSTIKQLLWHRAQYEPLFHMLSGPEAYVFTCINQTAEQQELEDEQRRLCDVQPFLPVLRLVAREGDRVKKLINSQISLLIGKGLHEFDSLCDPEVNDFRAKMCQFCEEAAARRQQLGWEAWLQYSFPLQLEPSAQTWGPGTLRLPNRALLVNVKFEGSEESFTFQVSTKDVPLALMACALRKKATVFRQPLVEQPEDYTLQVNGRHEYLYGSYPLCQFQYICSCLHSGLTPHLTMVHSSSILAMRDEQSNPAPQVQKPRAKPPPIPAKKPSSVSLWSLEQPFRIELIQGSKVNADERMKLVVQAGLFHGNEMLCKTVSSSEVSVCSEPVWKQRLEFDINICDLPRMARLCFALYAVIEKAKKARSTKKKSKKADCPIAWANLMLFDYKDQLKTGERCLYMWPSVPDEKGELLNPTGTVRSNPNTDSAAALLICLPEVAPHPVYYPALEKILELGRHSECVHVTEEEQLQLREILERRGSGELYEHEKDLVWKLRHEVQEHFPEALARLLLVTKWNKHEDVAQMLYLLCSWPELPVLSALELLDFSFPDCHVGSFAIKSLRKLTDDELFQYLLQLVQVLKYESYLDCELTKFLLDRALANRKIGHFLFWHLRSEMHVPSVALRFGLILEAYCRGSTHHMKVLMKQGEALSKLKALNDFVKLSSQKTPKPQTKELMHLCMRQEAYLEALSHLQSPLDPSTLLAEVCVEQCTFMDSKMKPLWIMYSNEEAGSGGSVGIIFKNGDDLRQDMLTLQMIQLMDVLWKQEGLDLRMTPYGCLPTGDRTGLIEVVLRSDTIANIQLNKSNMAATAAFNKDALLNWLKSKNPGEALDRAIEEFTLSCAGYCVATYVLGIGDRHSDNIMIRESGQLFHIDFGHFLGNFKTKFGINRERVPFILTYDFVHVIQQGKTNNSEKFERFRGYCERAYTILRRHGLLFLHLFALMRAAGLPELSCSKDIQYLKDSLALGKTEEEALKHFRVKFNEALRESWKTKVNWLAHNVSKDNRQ
Sequence (P27986 whole entry partner, canonical isoform): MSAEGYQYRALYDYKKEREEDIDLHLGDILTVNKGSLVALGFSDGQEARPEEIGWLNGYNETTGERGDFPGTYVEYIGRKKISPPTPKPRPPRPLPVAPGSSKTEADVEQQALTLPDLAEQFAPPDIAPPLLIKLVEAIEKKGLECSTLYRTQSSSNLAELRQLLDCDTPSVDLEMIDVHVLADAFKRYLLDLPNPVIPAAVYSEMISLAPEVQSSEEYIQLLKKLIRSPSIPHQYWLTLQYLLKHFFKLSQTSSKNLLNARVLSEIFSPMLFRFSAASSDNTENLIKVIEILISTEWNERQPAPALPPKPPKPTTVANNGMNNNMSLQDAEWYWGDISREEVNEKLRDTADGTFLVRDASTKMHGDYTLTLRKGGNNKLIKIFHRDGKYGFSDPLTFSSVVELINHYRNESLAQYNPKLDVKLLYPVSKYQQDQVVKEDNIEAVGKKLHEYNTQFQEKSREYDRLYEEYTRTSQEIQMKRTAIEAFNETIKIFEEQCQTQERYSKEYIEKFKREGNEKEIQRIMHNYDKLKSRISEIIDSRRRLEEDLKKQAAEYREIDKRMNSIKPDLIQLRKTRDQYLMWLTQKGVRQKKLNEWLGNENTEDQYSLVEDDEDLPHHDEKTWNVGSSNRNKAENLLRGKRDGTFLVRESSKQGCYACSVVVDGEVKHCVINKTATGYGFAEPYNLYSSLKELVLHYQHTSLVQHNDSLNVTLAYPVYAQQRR
TEST NAME: HTRF PI3K biochemical assay, delta isoform
COND: 0.3 nM enzyme, 100 uM ATP, 5 uM PIP2, form screened: Neutral
MEASUREMENT TYPE: pIC50
Scale: pIC50 equals -log10([C]), with [C] in mol/L.

Which pIC50 reading was recorded for the compound CC[C@H](Nc1ncnc2c1nc(-c1ccc(C(F)(F)F)nc1)n2CC)C(=O)N1C[C@@H](C)O[C@@H](C)C1 ?
8.55

Which pIC50 reading was recorded for the compound CCC(Nc1ncnc2c1nc(-c1cnc(C)nc1)n2CC)C(=O)N1CCc2c(c(C(C)C)nn2C)C1 (single isomer, unassigned) ?
7.41

Which pIC50 reading was recorded for the compound CC[C@H](Nc1ncnc2c1nc(-c1cnc(C)nc1)n2CC)C(=O)N1CCOCC1C(C)C (stereo partly drawn) ?
7.08

---

TARGET OF ASSAY: PI3Kdelta (Homo sapiens (Human))
TEST NAME: HTRF PI3K biochemical assay, delta isoform
COND: 0.3 nM enzyme, 100 uM ATP, 5 uM PIP2, form screened: Neutral
MEASUREMENT TYPE: pIC50
Scale: pIC50 equals -log10([C]), with [C] in mol/L.

Which pIC50 reading was recorded for the compound CC[C@H](Nc1ncnc2c1nc(-c1cnc(C)nc1)n2CC)C(=O)N1CC(=O)N(C)C(C)C1 (single isomer, unassigned) [Compound 4-6] ?
7.59

Which pIC50 reading was recorded for the compound CCn1c(-c2cnc(C)nc2)nc2c(N[C@H](CC(=O)N3C[C@@H](C)O[C@@H](C)C3)C(C)C)ncnc21 [Compound 2-58] ?
6.54

Which pIC50 reading was recorded for the compound CCn1c(-c2cnc(C)nc2)nc2c(N[C@H](CC(=O)N3CCCC3)C(C)C)ncnc21 [Compound 2-62] ?
7.00

Which pIC50 reading was recorded for the compound CC[C@H](Nc1ncnc2c1nc(-c1cnc(C)nc1)n2CC)C(=O)N1CCCOCC1 [Compound 2-25] ?
7.68

Which pIC50 reading was recorded for the compound CCn1c(-c2cnc(C)nc2)nc2c(N[C@@H](CO)C(=O)N3C[C@@H](C)O[C@@H](C)C3)ncnc21 [Compound 2-47] ?
7.92

Which pIC50 reading was recorded for the compound CCn1c(-c2cnc(C)nc2)nc2c(N[C@H](C(=O)N3C[C@@H](C)O[C@@H](C)C3)c3ccccc3)ncnc21 [Compound 2-43] ?
7.06

Which pIC50 reading was recorded for the compound CCn1c(-c2cnc(C)nc2)nc2c(N[C@H](C(=O)N3C[C@@H](C)O[C@@H](C)C3)C3CCCC3)ncnc21 [Compound 2-48] ?
7.26

---

TARGET OF ASSAY: PI3Kdelta (Homo sapiens (Human), UniProt O00329)
TEST NAME: HTRF PI3K biochemical assay, delta isoform
COND: 0.3 nM enzyme, 100 uM ATP, 5 uM PIP2, form screened: Neutral
MEASUREMENT TYPE: IC50 (nM)
Kindly answer with a numeric value in nM, unit omitted.

Which IC50 reading was recorded for the molecule CCn1c(-c2cnc(C)nc2)nc2c(N[C@H](C(=O)N3C[C@@H](C)O[C@@H](C)C3)[C@@H](C)OC)ccnc21 [Compound 3-3] ?
8.6

Which IC50 reading was recorded for the molecule CC[C@H](Nc1ncnc2c1nc(-c1cnc(C)nc1)n2CC)C(=O)N1CC(=O)N(C)C(C)C1 (single isomer, unassigned) [Compound 4-5] ?
6.1

Which IC50 reading was recorded for the molecule CC[C@H](Nc1ncnc2c1nc(-c1cnc(C)nc1)n2CC)C(=O)N1CC2CCS(=O)(=O)C2C1 (mixture of isomers) [Compound 2-14] ?
7
